- protocol.text: Inhibition of Mycobacterium tuberculosis MurX using UDP-MurNAc-dansylpentapeptide as substrate by fluorescence assay
In plain terms, low IC50, meaning strictly below 700 nM, gives condition met, and everything else gives condition not met.

compound.structure.string	group
C[C@@H]([C@H](NC(=O)[C@H](CC1CCCCC1)NC(=O)N[C@@H](Cc1c[nH]c2ccccc12)C(=O)O)C(=O)NC[C@H]1C[C@@H](O)[C@H](n2ccc(=O)[nH]c2=O)O1)N(C)C(=O)CN	condition met
CCCCCCOC(=O)[C@H](Cc1c[nH]c2ccccc12)NC(=O)N[C@@H](CC1CCCCC1)C(=O)N[C@H](C(=O)NC[C@H]1C[C@@H](O)[C@H](n2ccc(=O)[nH]c2=O)O1)[C@H](C)N(C)C(=O)CN	condition not met
C[C@@H]([C@H](NC(=O)[C@H](Cc1ccc2ccccc2c1)NC(=O)N[C@@H](Cc1c[nH]c2ccccc12)C(=O)NCc1ccccc1)C(=O)NC[C@H]1C[C@@H](O)[C@H](n2ccc(=O)[nH]c2=O)O1)N(C)C(=O)CN	condition met
C[C@@H]([C@H](NC(=O)[C@H](Cc1ccc2ccccc2c1)NC(=O)N[C@@H](Cc1c[nH]c2ccccc12)C(=O)OCc1ccccc1)C(=O)NC[C@H]1C[C@@H](O)[C@H](n2ccc(=O)[nH]c2=O)O1)N(C)C(=O)CN	condition not met
